test system: HCI-019 (organoid from a triple-negative breast cancer xenograft); test: CTG-3D luminescence at 96 h relative to day-0 seeding control (ratio to day 0); higher = more growth / less cytotoxicity; PDxO 3D drug screen, 96 h, CTG-3D normalised to day-0 seeding control.; conditions: 0.1 µM; days in culture: 110
Rule: True for CTG-3D luminescence at 96 h not less than 1, False for anything less.

* O=C(O)C1(C(=O)O)CCC1.[NH2-].[NH2-].[Pt+2] | True
* COc1cccc2c1C(=O)c1c(O)c3c(c(O)c1C2=O)C[C@@](O)(C(=O)CO)C[C@@H]3O[C@H]1C[C@H](N)[C@H](O)[C@H](C)O1 | True
* CC(C)n1nc(-c2ccc3oc(N)nc3c2)c2c(N)ncnc21 | False
* C[C@]12CC[C@@H]3c4ccc(O)cc4C[C@@H](CCCCCCCCC[S+]([O-])CCCC(F)(F)C(F)(F)F)[C@H]3[C@@H]1CC[C@@H]2O (some centres not stated) | True
* Cc1nc(-c2cn3c(n2)-c2ccc(-c4cnn(C(C)(C)C(N)=O)c4)cc2OCC3)n(C(C)C)n1 | True
* Cc1cc(Nc2ncc(Cl)c(Nc3ccccc3S(=O)(=O)C(C)C)n2)c(OC(C)C)cc1C1CCNCC1 | True
